# Target under test: human ether-à-go-go-related gene (hERG) potassium channel (human, UniProt Q12809);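 further: peak tail current of the secondary pulse compared with the same well before compound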
# Sequence (Q12809 whole entry, looked up): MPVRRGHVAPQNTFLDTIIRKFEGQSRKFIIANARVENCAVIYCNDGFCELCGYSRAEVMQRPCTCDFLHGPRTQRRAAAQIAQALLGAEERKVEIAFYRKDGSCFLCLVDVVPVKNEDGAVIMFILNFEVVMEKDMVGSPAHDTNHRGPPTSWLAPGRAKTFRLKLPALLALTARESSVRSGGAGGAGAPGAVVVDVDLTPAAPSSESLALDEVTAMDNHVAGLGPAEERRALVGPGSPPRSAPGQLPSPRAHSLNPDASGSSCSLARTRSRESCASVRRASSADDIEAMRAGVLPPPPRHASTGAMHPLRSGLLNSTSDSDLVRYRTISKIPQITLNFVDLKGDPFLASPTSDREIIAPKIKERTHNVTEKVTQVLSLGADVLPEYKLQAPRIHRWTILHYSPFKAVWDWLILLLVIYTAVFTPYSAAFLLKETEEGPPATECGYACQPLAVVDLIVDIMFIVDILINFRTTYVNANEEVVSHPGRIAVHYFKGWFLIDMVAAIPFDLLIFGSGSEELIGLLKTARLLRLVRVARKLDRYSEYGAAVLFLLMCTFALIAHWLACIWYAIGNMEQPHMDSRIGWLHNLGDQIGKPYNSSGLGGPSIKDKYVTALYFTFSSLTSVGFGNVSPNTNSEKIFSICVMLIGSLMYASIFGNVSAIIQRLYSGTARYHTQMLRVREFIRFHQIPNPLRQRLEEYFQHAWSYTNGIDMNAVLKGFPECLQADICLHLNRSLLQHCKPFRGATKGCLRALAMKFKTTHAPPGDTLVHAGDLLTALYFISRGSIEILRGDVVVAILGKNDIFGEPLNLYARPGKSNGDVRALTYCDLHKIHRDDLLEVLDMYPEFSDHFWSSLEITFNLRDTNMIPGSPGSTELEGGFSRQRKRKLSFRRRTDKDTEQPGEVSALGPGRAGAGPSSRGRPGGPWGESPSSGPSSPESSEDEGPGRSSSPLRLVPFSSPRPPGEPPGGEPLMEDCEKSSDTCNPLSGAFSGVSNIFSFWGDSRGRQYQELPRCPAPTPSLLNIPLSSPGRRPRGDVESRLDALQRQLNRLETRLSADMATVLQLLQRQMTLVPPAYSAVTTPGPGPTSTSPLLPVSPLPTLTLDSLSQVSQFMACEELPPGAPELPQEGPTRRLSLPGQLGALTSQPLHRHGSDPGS
# Protocol description: primary screen, population patch clamp on CHO cells stably expressing hERG; higher = less effect of the substance
Among all 310,000 compounds or so, about 14,000 (4.5%) showed an effect of 50% or more. Effects have a minus sign here. The full list was thinned out, with strong results kept by preference.
As shown below, each of these molecules has a reported hERG current change (%, negative = inhibition) at 10uM value.
Just the number please, in %, no unit attached.

{"columns": ["Molecule", "Numeric result"],
 "data": [
  ["NS(=O)(=O)c1ccc(CCNC(=O)C2CCN(c3ncnc4c3nc3n4CCCCC3)CC2)cc1", 9.07]
]}

Lab note: measured hERG current change (%, negative = inhibition) at 10uM of "Cc1oc(CC(C)C)cc1C(=O)Nc1cccc2ccccc12" was -58.8

Lab note: measured hERG current change (%, negative = inhibition) at 10uM of CCC(C)c1ccccc1NC(=O)C(C)N(C)Cc1cccc(OC)c1.O=C(O)C(=O)O (stereo not shown) was 11.8

Lab note: measured hERG current change (%, negative = inhibition) at 10uM of "CN(CCC#N)CC(=O)Nc1ccc(S(N)(=O)=O)cc1" was 13.3

Lab note: measured hERG current change (%, negative = inhibition) at 10uM of "Nc1ccc(-c2nc3ccc(N)cc3[nH]2)cc1" was 7.85

----------
# Target under test: human ether-à-go-go-related gene (hERG) potassium channel (human, UniProt Q12809);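 further: peak tail current of the secondary pulse compared with the same well before compound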
# Protocol description: primary screen, population patch clamp on CHO cells stably expressing hERG; higher = less effect of the substance
In all, about 310,000 compounds went through this assay and about 14,000 (4.5%) showed an effect of 50% or more. The effect is printed as a negative number. The sample as a whole holds a higher share of strong results than the screen did.
As shown below, each of these compounds has a reported hERG current change (%, negative = inhibition) at 10uM value.
Just the number please, in %, no unit attached.

Worked cases, hERG current change (%, negative = inhibition) at 10uM given:
{"columns": ["Compound", "Numeric result"],
 "data": [
  ["CCOC(=O)/C(C#N)=C1\\CCCN1CC(N)=S", 2.57],
  ["COc1ccc(/C(C)=N/NC(=O)CCC(=O)Nc2ccc(Cl)cc2Cl)c(OC)c1", -3.74],
  ["CCOC(=O)CC1C(=O)NCCN1C(=O)c1ccc(C)cc1 (stereo not shown)", 14.9],
  ["S=C1NCN(Cc2cccnc2)CN1Cc1ccccc1", 22.8],
  ["Cc1ccc2[nH]c(=O)c(CN3CCCCC3)c(-c3ccccc3)c2c1", -53.6],
  ["O=C(COc1ccc2ccccc2c1)NCCNC(=O)COc1ccc2ccccc2c1", 17.2]
]}

Lab note: measured hERG current change (%, negative = inhibition) at 10uM of "Cc1onc(-c2c(F)cccc2Cl)c1C(=O)N1CCc2ccccc2C1" was -15.7

Lab note: measured hERG current change (%, negative = inhibition) at 10uM of "CCOC(=O)CC(=O)NC1(Cc2ccc(O)cc2)CCCCC1" was 1.06

Lab note: measured hERG current change (%, negative = inhibition) at 10uM of "CCCCn1c(=O)c(CCC(=O)OCC(=O)NC(=O)NCCC(C)C)nc2ccccc21" was -9.31

Lab note: measured hERG current change (%, negative = inhibition) at 10uM of "Cc1nc2cc(NC(=O)Nc3ccc(N4CCOCC4)cc3)ccc2n1C" was 6.34
